Taken from ChEMBL document CHEMBL5233264.

# Tested on: HepG2
# PROTOCOL_SUMMARY: Anticancer activity against human HepG2 cells
# Assay type: functional, cell-based
QUANTITY: IC50 (µM)

> print(dat)
                                   compound  quantity  obs.value
1  CN(CCc1ccc(Br)cc1)c1ccc2nc3ccc(N(C)CCc4ccc(Br)cc4)cc3[s+]c2c1      IC50          1
2  CN(C)c1ccc2nc3ccc(N(C)C)cc3[s+]c2c1 [METHYLENE BLUE ANHYDROUS]      IC50          6
3  CN1CCN(c2ccc(-c3nc(-c4nc5ccccc5s4)[nH]c3-c3ccc(N4CCN(C)CC4)cc3)cc2)CC1      IC50        4.5
